# target entity: human EP4 receptor (Homo sapiens (Human), UniProt P35408)
# Sequence (P35408 whole entry): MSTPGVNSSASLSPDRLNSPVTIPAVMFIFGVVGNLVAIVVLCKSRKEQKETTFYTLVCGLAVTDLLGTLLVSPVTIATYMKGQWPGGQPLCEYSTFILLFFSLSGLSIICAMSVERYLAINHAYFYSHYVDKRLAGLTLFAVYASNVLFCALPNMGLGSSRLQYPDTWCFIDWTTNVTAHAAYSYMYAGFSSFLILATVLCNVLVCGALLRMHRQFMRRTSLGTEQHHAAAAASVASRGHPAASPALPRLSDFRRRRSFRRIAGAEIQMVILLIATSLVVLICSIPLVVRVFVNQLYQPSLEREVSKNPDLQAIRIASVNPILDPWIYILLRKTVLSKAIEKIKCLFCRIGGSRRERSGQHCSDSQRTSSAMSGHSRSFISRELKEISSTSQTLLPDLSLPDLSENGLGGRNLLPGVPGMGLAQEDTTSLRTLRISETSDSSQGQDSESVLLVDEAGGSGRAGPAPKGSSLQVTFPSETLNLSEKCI
# measurement description: EP4 antagonistic activity measurement experiment using prostanoid receptor subtype expressing cells
# setup conditions: CHO cells expressing human EP4 receptor; inhibition of cAMP production by PGE2 10 nM; 30 minutes at room temperature
measured metric: IC50 (nM)

Here is how some compounds turned out for IC50.
CNC(=O)c1ccc2c(C3CC3)cn(C(C)C(=O)Nc3cc(Cn4cc(C)cn4)ccc3CCCC(=O)O)c2c1 (single isomer, unassigned) : 4.6
CNC(=O)c1ccc2c(C)cn(C(C)C(=O)Nc3cc(CN4CCCCS4(=O)=O)ccc3CCCC(=O)O)c2c1 (stereo not drawn) : 39
CNC(=O)c1ccc2c(C)cn(C(C)C(=O)Nc3cc(Cn4cc(C)cn4)ccc3CCCC(=O)O)c2c1 (single isomer, unassigned) : 1.6

1 = COCCNC(=O)c1ccc2c(c1)c(C)cn2C(C)C(=O)Nc1cc(Cn2cc(C)cn2)ccc1CCCC(=O)O (single isomer, unassigned)
2 = CNC(=O)c1ccc2c(C)cn(C(C)C(=O)Nc3cc(Cn4cc(Cl)cn4)ccc3CCCC(=O)O)c2c1 (stereo not drawn)
3 = Cc1cn(C(C)C(=O)Nc2cc(C#N)ccc2CCCC(=O)O)c2cc(C(=O)NC(C)(C)C)ccc12 (single isomer, unassigned)
Task: Hey, quick one: sort these by IC50, largest value first please. Provide the ranking by listing each label in its place in the requested order.
Output: 1, 2, 3
